Tested on: MV4-11
ASSAY OVERVIEW: cell viability (% survival relative to DMSO control, bortezomib = 0%); higher = less cytotoxic
ASSAY CONTEXT: 1 nM; 72 h
Assignment: determine reported cell viability for the given compounds.
The reply should contain only the number, in %.

Quick one: give measured cell viability for CC[C@@]1(O)C(=O)OCc2c1cc1n(c2=O)Cc2cc3c(CN(C)C)c(O)ccc3nc2-1
91.1

Quick one: give measured cell viability for Cc1coc2c1C(=O)C(=O)c1c-2ccc2c1CCCC2(C)C
91.9

Quick one: give measured cell viability for Cl.NC(CCC(=O)Nc1ccc([N+](=O)[O-])cc1)C(=O)O (centres undefined)
117

Quick one: give measured cell viability for O=C(O)Cn1nnc(-c2cc(N3CCC(Oc4cc(F)ccc4Br)CC3)no2)n1
96.8
